# STUDY_SYSTEM: Neu5Ac(a2-8)Neu5Gc(a2-3)Gal(b1-4)GlcNAc
# EXPERIMENT_SUMMARY: glycan array binding signal (z-score within array); higher = stronger binding
# TEST_PARAMETERS: glycan notation: IUPAC condensed, linker removed
About 410 targets per protein were measured; listed, in parts, are those with the strongest signals and a random draw of the rest.

BINDER	glycan array binding signal (z-score)
LngA (Escherichia coli) (protein) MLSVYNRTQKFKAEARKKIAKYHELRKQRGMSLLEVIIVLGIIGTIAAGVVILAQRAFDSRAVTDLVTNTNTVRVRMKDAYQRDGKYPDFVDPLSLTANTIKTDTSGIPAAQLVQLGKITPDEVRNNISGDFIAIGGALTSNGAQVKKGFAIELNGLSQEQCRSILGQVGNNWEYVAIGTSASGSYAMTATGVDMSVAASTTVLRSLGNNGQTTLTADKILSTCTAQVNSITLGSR	-0.319
Epa7 (Candida glabrata), Q6DTM6_CANGB (protein) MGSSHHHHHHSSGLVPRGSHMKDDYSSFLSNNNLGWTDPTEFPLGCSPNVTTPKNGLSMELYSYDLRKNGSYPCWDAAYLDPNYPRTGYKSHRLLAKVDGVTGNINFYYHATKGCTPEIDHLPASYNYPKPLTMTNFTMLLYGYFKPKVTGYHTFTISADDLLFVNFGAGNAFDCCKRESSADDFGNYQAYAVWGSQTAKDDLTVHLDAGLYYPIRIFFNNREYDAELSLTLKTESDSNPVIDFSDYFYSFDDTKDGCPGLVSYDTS	-0.241
Mg3lysM (Mycosphaerella graminicola) (protein) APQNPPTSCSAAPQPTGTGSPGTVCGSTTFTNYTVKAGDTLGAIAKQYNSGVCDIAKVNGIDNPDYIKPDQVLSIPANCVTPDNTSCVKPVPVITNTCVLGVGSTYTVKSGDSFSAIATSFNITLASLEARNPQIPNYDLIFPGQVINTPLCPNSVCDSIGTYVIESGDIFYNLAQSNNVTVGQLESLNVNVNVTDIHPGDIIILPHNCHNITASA	0.137
